# Tested on: SK-MEL-2 (Melanoma)
# assay-comment: combination Emax (second highest fraction inhibited in the dose matrix, 72 h); higher = more inhibition; extreme values may be limits of the assay
# key: entry, value: combination Emax
measurement-kind: combination Emax

[[record]]
molecule = "N#Cc1cnc(Nc2cc(NC[C@H]3CNCCO3)c(C(F)(F)F)cn2)cn1 [SRA737] + Nc1ccn([C@@H]2O[C@H](CO)[C@@H](O)C2(F)F)c(=O)n1 [Gemcitabine] (first compound max 10 µM, 7x7, partner max 0.3 µM)"
measurement_kind = "combination Emax"
recorded_value = 0.504

[[record]]
molecule = "CS(=O)(=O)CCNCc1ccc(-c2ccc3ncnc(Nc4ccc(OCc5cccc(F)c5)c(Cl)c4)c3c2)o1 [Lapatinib] + Cn1cnc2c(F)c(Nc3ccc(Br)cc3Cl)c(C(=O)NOCCO)cc21 [Selumetinib] (first compound max 10 µM, 7x7, partner max 10 µM)"
measurement_kind = "combination Emax"
recorded_value = 0.793

[[record]]
molecule = "NC1(C(=O)N[C@@H](CCO)c2ccc(Cl)cc2)CCN(c2ncnc3[nH]ccc23)CC1 [Capivasertib] + CCN(CCO)CCCOc1ccc2c(Nc3cc(CC(=O)Nc4cccc(F)c4)[nH]n3)ncnc2c1 [AZD2811] (first compound max 10 µM, 7x7, partner max 1 µM)"
measurement_kind = "combination Emax"
recorded_value = 0.0759

[[record]]
molecule = "NC1(C(=O)N[C@@H](CCO)c2ccc(Cl)cc2)CCN(c2ncnc3[nH]ccc23)CC1 [Capivasertib] + Cn1cnc2c(F)c(Nc3ccc(Br)cc3Cl)c(C(=O)NOCCO)cc21 [Selumetinib] (first compound max 10 µM, 7x7, partner max 10 µM)"
measurement_kind = "combination Emax"
recorded_value = 0.843

